I'd be grateful if you could share measured pEC50 for these entries.
target: Glucagon-like peptide 1 receptor (Homo sapiens); test: Agonist activity human GLP-1R stably expressed in HEK293 cells assessed as increase in intracellular cAMP level incubated for 30 mins by multiplate reader analysis; assay type: functional, cell-based
Answers are plain numbers, as −log10 of the molar value.

Take a look at these entries with their results.
[
  {
    "input.smiles": "NC(=O)NCCSc1nnc(-c2ccc3c(c2)nc(CN2CCC(c4cccc(OCc5ccc(Cl)cc5F)n4)CC2)n3C[C@@H]2CCO2)[nH]1",
    "pEC50": 9.96
  },
  {
    "input.smiles": "Fc1cc(Cl)ccc1COc1cccc(C2CCN(Cc3nc4cc(-c5nnc(SCC6CC6)[nH]5)ccc4n3C[C@@H]3CCO3)CC2)n1",
    "pEC50": 7.30
  },
  {
    "input.smiles": "Fc1cc(Cl)ccc1COc1cccc(C2CCN(Cc3nc4cc(-c5nnc(C(F)(F)F)[nH]5)ccc4n3C[C@@H]3CCO3)CC2)n1",
    "pEC50": 9.34
  },
  {
    "input.smiles": "O=C(O)CSc1nnc(-c2ccc3c(c2)nc(CN2CCC(c4cccc(OCc5ccc(Cl)cc5F)n4)CC2)n3C[C@@H]2CCO2)[nH]1",
    "pEC50": 9.00
  },
  {
    "input.smiles": "OCCCSc1nnc(-c2ccc3c(c2)nc(CN2CCC(c4cccc(OCc5ccc(Cl)cc5F)n4)CC2)n3C[C@@H]2CCO2)[nH]1",
    "pEC50": 9.32
  },
  {
    "input.smiles": "NCCSc1nnc(-c2ccc3c(c2)nc(CN2CCC(c4cccc(OCc5ccc(Cl)cc5F)n4)CC2)n3C[C@@H]2CCO2)[nH]1",
    "pEC50": 9.38
  }
]

Could you tell me pEC50 for each of these molecules? They are listed below.
1. COc1nnc(-c2ccc3c(c2)nc(CN2CCC(c4cccc(OCc5ccc(Cl)cc5F)n4)CC2)n3C[C@@H]2CCO2)[nH]1
2. OCCCCSc1nnc(-c2ccc3c(c2)nc(CN2CCC(c4cccc(OCc5ccc(Cl)cc5F)n4)CC2)n3C[C@@H]2CCO2)[nH]1
3. CC(=O)CSc1nnc(-c2ccc3c(c2)nc(CN2CCC(c4cccc(OCc5ccc(Cl)cc5F)n4)CC2)n3C[C@@H]2CCO2)[nH]1
4. CSc1nnc(-c2ccc3c(c2)nc(CN2CCC(c4cccc(OCc5ccc(Cl)cc5F)n4)CC2)n3C[C@@H]2CCO2)[nH]1
5. N=C(N)CSc1nnc(-c2ccc3c(c2)nc(CN2CCC(c4cccc(OCc5ccc(Cl)cc5F)n4)CC2)n3C[C@@H]2CCO2)[nH]1
6. OCCSc1nnc(-c2ccc3c(c2)nc(CN2CCC(c4cccc(OCc5ccc(Cl)cc5F)n4)CC2)n3C[C@@H]2CCO2)[nH]1
7. NC(=O)CCCSc1nnc(-c2ccc3c(c2)nc(CN2CCC(c4cccc(OCc5ccc(Cl)cc5F)n4)CC2)n3C[C@@H]2CCO2)[nH]1
8. Fc1cc(Cl)ccc1COc1cccc(C2CCN(Cc3nc4cc(-c5nnc(SCc6ncc[nH]6)[nH]5)ccc4n3C[C@@H]3CCO3)CC2)n1

9.06
8.40
9.18
9.17
8.55
10.19
10.00
8.60

###

target: Glucagon-like peptide 1 receptor (Homo sapiens); experiment: Agonist activity human GLP-1R stably expressed in HEK293 cells assessed as increase in intracellular cAMP level incubated for 30 mins by multiplate reader analysis; type: functional, cell-based
endpoint.label: EC50 (nM)
Answers are plain numbers, in nM.

# annotated cases, reported EC50 shown
[
  {
    "input.smiles": "NC(=O)CCSc1nnc(-c2ccc3c(c2)nc(CN2CCC(c4cccc(OCc5ccc(Cl)cc5F)n4)CC2)n3C[C@@H]2CCO2)[nH]1",
    "EC50 [nM]": 0.59
  },
  {
    "input.smiles": "CC(C)Sc1nnc(-c2ccc3c(c2)nc(CN2CCC(c4cccc(OCc5ccc(Cl)cc5F)n4)CC2)n3C[C@@H]2CCO2)[nH]1",
    "EC50 [nM]": 5.2
  },
  {
    "input.smiles": "N=C(CSc1nnc(-c2ccc3c(c2)nc(CN2CCC(c4cccc(OCc5ccc(Cl)cc5F)n4)CC2)n3C[C@@H]2CCO2)[nH]1)NO",
    "EC50 [nM]": 0.52
  },
  {
    "input.smiles": "N#CCSc1nnc(-c2ccc3c(c2)nc(CN2CCC(c4cccc(OCc5ccc(Cl)cc5F)n4)CC2)n3C[C@@H]2CCO2)[nH]1",
    "EC50 [nM]": 0.67
  }
]

Would you mind listing EC50 for each of the following molecules?
1. CSc1nnc(-c2ccc3c(c2)nc(CN2CCC(c4cccc(OCc5ccc(Cl)cc5F)n4)CC2)n3C[C@@H]2CCO2)n1C
2. CN(C)c1nnc(-c2ccc3c(c2)nc(CN2CCC(c4cccc(OCc5ccc(Cl)cc5F)n4)CC2)n3C[C@@H]2CCO2)[nH]1

[8.5, 6.8]

Entry `CCSc1nnc(-c2ccc3c(c2)nc(CN2CCC(c4cccc(OCc5ccc(Cl)cc5F)n4)CC2)n3C[C@@H]2CCO2)[nH]1` — recorded EC50 = 1.1

###

target: Glucagon-like peptide 1 receptor (Homo sapiens, UniProt P43220); experiment: Agonist activity at GLP-1R (unknown origin) transfected in HEK293 cells assessed as beta-arrestin2 recruitment incubated for 5 mins by Envision multiplate reader analysis; type: functional, cell-based
Sequence (P43220 whole entry): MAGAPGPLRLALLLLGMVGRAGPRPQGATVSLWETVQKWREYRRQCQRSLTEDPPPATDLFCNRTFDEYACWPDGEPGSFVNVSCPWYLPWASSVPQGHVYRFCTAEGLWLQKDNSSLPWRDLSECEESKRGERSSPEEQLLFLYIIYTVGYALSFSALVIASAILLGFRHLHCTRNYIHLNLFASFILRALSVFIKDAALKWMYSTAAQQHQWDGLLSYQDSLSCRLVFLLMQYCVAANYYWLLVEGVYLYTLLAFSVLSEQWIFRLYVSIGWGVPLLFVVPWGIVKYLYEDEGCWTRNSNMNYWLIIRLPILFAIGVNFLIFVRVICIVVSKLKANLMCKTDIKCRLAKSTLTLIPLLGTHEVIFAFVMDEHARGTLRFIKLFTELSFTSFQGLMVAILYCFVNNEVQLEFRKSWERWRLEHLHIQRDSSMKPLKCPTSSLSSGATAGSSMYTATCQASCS
Record form. Attribute: pEC50. Fill in for each entry.
Answers are plain numbers, as −log10 of the molar value.

[
  {
    "input.smiles": "NC(=O)CCCSc1nnc(-c2ccc3c(c2)nc(CN2CCC(c4cccc(OCc5ccc(Cl)cc5F)n4)CC2)n3C[C@@H]2CCO2)[nH]1",
    "pEC50": 6.49
  }
]

Kindly give each listed record's pEC50.
1. OCCSc1nnc(-c2ccc3c(c2)nc(CN2CCC(c4cccc(OCc5ccc(Cl)cc5F)n4)CC2)n3C[C@@H]2CCO2)[nH]1
2. NC(=O)NCCSc1nnc(-c2ccc3c(c2)nc(CN2CCC(c4cccc(OCc5ccc(Cl)cc5F)n4)CC2)n3C[C@@H]2CCO2)[nH]1

1. 6.24
2. 6.46

###

biological target: Glucagon-like peptide 1 receptor (Homo sapiens); experiment: Agonist activity at GLP-1R (unknown origin) transfected in HEK293 cells assessed as beta-arrestin1 recruitment incubated for 5 mins by Envision multiplate reader analysis; assay type: functional, cell-based
Record form. Attribute: EC50. Fill in for each entry.
One number for each entry, in nM.

Below: 2 compounds and their reported EC50.
[
  {
    "input.smiles": "OCCSc1nnc(-c2ccc3c(c2)nc(CN2CCC(c4cccc(OCc5ccc(Cl)cc5F)n4)CC2)n3C[C@@H]2CCO2)[nH]1",
    "EC50 [nM]": 936
  },
  {
    "input.smiles": "NC(=O)NCCSc1nnc(-c2ccc3c(c2)nc(CN2CCC(c4cccc(OCc5ccc(Cl)cc5F)n4)CC2)n3C[C@@H]2CCO2)[nH]1",
    "EC50 [nM]": 364
  }
]

Shifting focus to the compound that follows.
// EC50 (Glucagon-like peptide 1 receptor (Homo sapiens)) for `NC(=O)CCCSc1nnc(-c2ccc3c(c2)nc(CN2CCC(c4cccc(OCc5ccc(Cl)cc5F)n4)CC2)n3C[C@@H]2CCO2)[nH]1` = 566

###

What pEC50 was measured for each of the following?
target: Glucagon-like peptide 1 receptor (Homo sapiens, UniProt P43220); experiment: Agonist activity human GLP-1R stably expressed in HEK293 cells assessed as increase in intracellular cAMP level incubated for 30 mins by multiplate reader analysis; assay type: functional, cell-based
Numbers only, as −log10 of the molar value.

[
  {
    "molecule": "CC(C)CSc1nnc(-c2ccc3c(c2)nc(CN2CCC(c4cccc(OCc5ccc(Cl)cc5F)n4)CC2)n3C[C@@H]2CCO2)[nH]1",
    "pEC50": 7.66
  },
  {
    "molecule": "NC(=O)CCCCSc1nnc(-c2ccc3c(c2)nc(CN2CCC(c4cccc(OCc5ccc(Cl)cc5F)n4)CC2)n3C[C@@H]2CCO2)[nH]1",
    "pEC50": 9.21
  },
  {
    "molecule": "CCc1nnc(-c2ccc3c(c2)nc(CN2CCC(c4cccc(OCc5ccc(Cl)cc5F)n4)CC2)n3C[C@@H]2CCO2)[nH]1",
    "pEC50": 9.12
  },
  {
    "molecule": "O=C1NCC(CSc2nnc(-c3ccc4c(c3)nc(CN3CCC(c5cccc(OCc6ccc(Cl)cc6F)n5)CC3)n4C[C@@H]3CCO3)[nH]2)O1 (stereo partly specified)",
    "pEC50": 9.42
  }
]

Please go through the list and note pEC50 for each molecule.
1. NC(=O)CSc1nnc(-c2ccc3c(c2)nc(CN2CCC(c4cccc(OCc5ccc(Cl)cc5F)n4)CC2)n3C[C@@H]2CCO2)[nH]1
2. COCCSc1nnc(-c2ccc3c(c2)nc(CN2CCC(c4cccc(OCc5ccc(Cl)cc5F)n4)CC2)n3C[C@@H]2CCO2)[nH]1

1: 9.46; 2: 8.47
